From: the Human Domainome abundance scans (Beltran et al. 2025)

B1: Segment polarity protein dishevelled homolog DVL-3, residues 2 to 81; numbered along this chain, Q92997 (parent)
chain: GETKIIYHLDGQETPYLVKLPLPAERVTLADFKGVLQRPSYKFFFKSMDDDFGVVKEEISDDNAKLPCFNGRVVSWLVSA

variants of: B1; assay: abundance fitness (aPCA) (normalised: wild type 0, dead -1); higher = more abundant; growth selection in yeast, the domain comes from the species named; conditions: Homo sapiens
measure: abundance fitness
Answer as a number with no unit attached.

Data request: Record request: abundance fitness value, item `V74K`
Data returned: -0.953

Data request: Record request: abundance fitness value, item `K19E`
Data returned: -0.034

Data request: Record request: abundance fitness value, item `R26E`
Data returned: 0.086

Data request: Record request: abundance fitness value, item `V73F`
Data returned: -0.684

Data request: Record request: abundance fitness value, item `A80N`
Data returned: 0.11

Data request: Record request: abundance fitness value, item `S47E`
Data returned: -0.726

Data request: Record request: abundance fitness value, item `F43P`
Data returned: -1.12

Data request: Record request: abundance fitness value, item `G34W`
Data returned: -0.649

Data request: Record request: abundance fitness value, item `D51L`
Data returned: -0.32

Data request: Record request: abundance fitness value, item `K19Y`
Data returned: -0.154

Data request: Record request: abundance fitness value, item `V73H`
Data returned: -0.573

Data request: Record request: abundance fitness value, item `R38S`
Data returned: 0.159

Data request: Record request: abundance fitness value, item `L20E`
Data returned: -0.615

Data request: Record request: abundance fitness value, item `F52G`
Data returned: 0.781

Data request: Record request: abundance fitness value, item `P23Y`
Data returned: -0.517

Data request: Record request: abundance fitness value, item `F44C`
Data returned: -0.689

Data request: Record request: abundance fitness value, item `D61S`
Data returned: -0.594

Data request: Record request: abundance fitness value, item `E57W`
Data returned: -0.526

Data request: Record request: abundance fitness value, item `R38E`
Data returned: 0.13

Data request: Record request: abundance fitness value, item `S47H`
Data returned: -0.207

Data request: Record request: abundance fitness value, item `R38I`
Data returned: -0.181

Data request: Record request: abundance fitness value, item `V27D`
Data returned: -0.987

Data request: Record request: abundance fitness value, item `D49F`
Data returned: -0.488

Data request: Record request: abundance fitness value, item `V27W`
Data returned: -0.929

Data request: Record request: abundance fitness value, item `D31A`
Data returned: -0.099

Data request: Record request: abundance fitness value, item `V74A`
Data returned: -0.585

Data request: Record request: abundance fitness value, item `K19N`
Data returned: -0.133

Data request: Record request: abundance fitness value, item `F43C`
Data returned: -0.391

Data request: Record request: abundance fitness value, item `L36C`
Data returned: -0.563

Data request: Record request: abundance fitness value, item `V35T`
Data returned: -0.167

Data request: Record request: abundance fitness value, item `C68R`
Data returned: -0.875

Data request: Record request: abundance fitness value, item `A30V`
Data returned: -0.742

Data request: Record request: abundance fitness value, item `R38F`
Data returned: -0.142

Data request: Record request: abundance fitness value, item `G34Q`
Data returned: 0.166

Data request: Record request: abundance fitness value, item `V55D`
Data returned: -0.259

Data request: Record request: abundance fitness value, item `L36G`
Data returned: -0.993

Data request: Record request: abundance fitness value, item `L77M`
Data returned: -0.395

Data request: Record request: abundance fitness value, item `N63Q`
Data returned: -0.113

Data request: Record request: abundance fitness value, item `K46N`
Data returned: -0.046

Data request: Record request: abundance fitness value, item `F45W`
Data returned: -0.605

Data request: Record request: abundance fitness value, item `F43T`
Data returned: -0.695

Data request: Record request: abundance fitness value, item `D51I`
Data returned: -0.202

Data request: Record request: abundance fitness value, item `S40A`
Data returned: -0.024

Data request: Record request: abundance fitness value, item `P67S`
Data returned: -0.646

Data request: Record request: abundance fitness value, item `K65R`
Data returned: -0.032

Data request: Record request: abundance fitness value, item `C68P`
Data returned: -0.759
